All figures here come from paper PMC3891043.

- TEST DESCRIPTION: Photolysis quantum yields
- Format: physicochemical
- MEASUREMENT CONTEXT: λ = 300 nm; 50% aq CH3CN
ENDPOINT NAME: Φdis, disappearance quantum yield (pHP diethyl phosphates)
I'd appreciate a reply containing only the number, no unit.

Reference set (3 entries):
* CCOP(=O)(OCC)OCC(=O)c1ccc(O)c(OC)c1 [Compound 28] | 0.39
* CCOP(=O)(OCC)OCC(=O)c1ccc(O)c(C(C)=O)c1 [Compound 32] | 0.03
* CCOP(=O)(OCC)OCC(=O)c1c(OC)cc(O)cc1OC [Compound 31] | 0.69

Next:
Please give the measured Φdis, disappearance quantum yield (pHP diethyl phosphates) for this molecule: CCOP(=O)(OCC)OCC(=O)c1ccc(O)cc1OC [Compound 30]
0.59

###

Entries and their k1, rate constant for triplet rise
- TEST DESCRIPTION: Laser flash photolysis / femtosecond pump-probe spectroscopy
- Format: physicochemical
- MEASUREMENT CONTEXT: unbuffered H2O; singlet λmax ~ 315 nm

Reference set (2 entries):
- NCCCC(=O)OCC(=O)c1ccc(O)cc1.O=C(O)C(F)(F)F: 4.4 1011 s^−1
- NCCCC(=O)OCC(=O)c1ccc(O)c(C(=O)O)c1.O=C(O)C(F)(F)F: 2.1 1011 s^−1

Please give the measured k1, rate constant for triplet rise for this molecule: `COC(=O)c1cc(C(=O)COC(=O)CCCN)ccc1O.O=C(O)C(F)(F)F`
3.2 1011 s^−1

Please give the measured k1, rate constant for triplet rise for this molecule: `COc1cc(C(=O)COC(=O)CCCN)ccc1O.O=C(O)C(F)(F)F`
2.2 1011 s^−1
